Where do these numbers come from? They come from paper PMC6627609.

Target: LsrK (Salmonella typhimurium)
Experiment: biochemical
Format: biochemical, S. typhimurium
Parameter: inhibition at 50 µM. Scope: all listed entries.
# number only, unit % dropped from output

# count of solved cases: 4
Record `C[C@]12CC[C@H](O)C[C@H]1CC[C@@H]1[C@@H]2C[C@@H](O)[C@]2(C)[C@@H](C3=CC(=O)OC3)CC[C@]12O` . Reported inhibition at 50 µM: 2

Measured inhibition at 50 µM of `NC1(C(=O)O)CC1` : 1

The measured inhibition at 50 µM associated with `N[C@@H](C(=O)N[C@@H]1C(=O)N2C(C(=O)O)=C(Cl)CS[C@H]12)c1ccccc1` reads 24

Consider CCCCCCCCCCOc1cc2c(O)c(C(=O)OCC)cnc2cc1OCC [DECOQUINATE] . Its measured inhibition at 50 µM is 36

Others:
Consider Nc1ccccc1S(N)(=O)=O [2-AMINOBENZENESULFONAMIDE] . Its measured inhibition at 50 µM is 1

The compound identified as `C[C@@H]1[C@H](O)[C@@H](C)/C=C/C=C/C=C/C=C/C=C/C=C/C=C/[C@H](O[C@@H]2O[C@H](C)[C@@H](O)[C@H](N)[C@@H]2O)C[C@@H]2O[C@](O)(C[C@@H](O)C[C@@H](O)[C@H](O)CC[C@@H](O)C[C@@H](O)CC(=O)O[C@H]1C)C[C@H](O)[C@H]2C(=O)O` registered its inhibition at 50 µM at 61

----------
Biological target: LsrK (Salmonella typhimurium, UniProt Q8ZKQ6)
Sequence (Q8ZKQ6 whole entry): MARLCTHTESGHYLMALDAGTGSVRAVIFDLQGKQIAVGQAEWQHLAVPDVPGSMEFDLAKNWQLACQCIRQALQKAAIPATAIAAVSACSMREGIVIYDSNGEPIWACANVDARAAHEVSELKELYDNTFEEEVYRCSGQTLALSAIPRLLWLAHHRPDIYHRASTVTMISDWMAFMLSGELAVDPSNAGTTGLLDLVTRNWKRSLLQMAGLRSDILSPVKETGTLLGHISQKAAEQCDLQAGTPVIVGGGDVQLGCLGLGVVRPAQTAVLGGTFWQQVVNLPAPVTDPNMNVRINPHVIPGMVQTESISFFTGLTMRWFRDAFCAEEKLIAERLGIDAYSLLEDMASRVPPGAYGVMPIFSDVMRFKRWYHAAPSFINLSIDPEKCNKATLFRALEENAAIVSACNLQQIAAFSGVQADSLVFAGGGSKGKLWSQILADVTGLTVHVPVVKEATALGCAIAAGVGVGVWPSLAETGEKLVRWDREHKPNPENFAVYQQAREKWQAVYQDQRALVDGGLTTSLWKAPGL
Assay: biochemical
Assay type: biochemical, S. typhimurium
Reported property: inhibition at 50 µM (%)
Report the value in % with no unit label.

Consider CC1(C)O[C@@H]2C[C@H]3[C@@H]4CCC5=CC(=O)C=C[C@]5(C)[C@H]4[C@@H](O)C[C@]3(C)[C@]2(C(=O)CO)O1 [DESONIDE] . Its measured inhibition at 50 µM is 0

---
Sample `c1ccc2c(c1)[nH]c1cnccc12` ; inhibition at 50 µM observed: 1

----------
Target: UniProtKB Q8ZKQ6
Assay: biochemical
Format: biochemical, S. typhimurium
Conditions: 50 µM
Reported Inhibition (%) values for a set of compounds
Response field accepts a number only; no unit should be typed.

Recorded results for 5 compounds are shown here.
Record summary for C[C@@H]1[C@H](O)[C@@H](C)/C=C/C=C/CC/C=C/C=C/C=C/C=C/C(O[C@H]2O[C@H](C)[C@@H](O)[C@H](N)[C@@H]2O)CC2O[C@](O)(CC(O)C(O)CCC(O)CC(O)CC(O)CC(=O)O[C@H]1C)CC(O)C2C(=O)O (some centres unmarked) [NYSTATIN] : reported Inhibition (%) = 41

According to the records, this compound C[C@@H]1CC[C@@]2(OC1)O[C@H]1C[C@H]3[C@@H]4CC[C@H]5C[C@@H](O)CC[C@]5(C)C4=CC[C@]3(C)[C@H]1[C@@H]2C [3beta-HYDROXYISOALLOSPIROST-9(11)-ENE] displays Inhibition (%) of 2

// sample OC[C@H]1O[C@H](OCC2O[C@@H](O)[C@H](O)[C@@H](O)[C@@H]2O)[C@H](O)[C@@H](O)[C@H]1O (some centres unmarked) [MELIBIOSE] , its Inhibition (%) was 3

Cc1cc2nc3c(=O)[nH]c(=O)nc-3n(C[C@H](O)[C@H](O)[C@H](O)COP(=O)([O-])O)c2cc1C.[Na+] [RIBOFLAVIN 5-PHOSPHATE SODIUM] has a reported Inhibition (%) of 1

// recorded Inhibition (%) for CC(=O)O[C@@H]1C[C@H]2C(C)(C)C(=O)C=C[C@]2(C)[C@H]2CC[C@]3(C)C(=CC(=O)O[C@H]3c3ccoc3)[C@@]21C [DEOXYGEDUNIN] : 0

---
Just so you know, measured Inhibition (%) for CC(=O)c1c(O)cc(O)cc1O [PHLORACETOPHENONE] came out at 1

For this compound ( CC(=O)Oc1c(C)cccc1C(=O)O [CRESOPIRINE] ), measured Inhibition (%) is 1

Entry CC(=O)O[C@H]1CCC2(C)C3=C(CCC2C1(C)C)[C@@]1(C)CC[C@@H](C(C)CCC=C(C)C)[C@]1(C)CC3 (some centres unmarked) [EUPHOL ACETATE] ; Inhibition (%) = 1

// recorded Inhibition (%) for CC1=CC(=O)[C@H]2C(C)(C)CCC[C@]2(C)[C@@]1(O)CCc1ccoc1 [SOLIDAGENONE] : 0

Value of Inhibition (%) reported for the compound COc1ccc(/C=C/C(=O)c2cc(O)ccc2O)cc1 [2'.5'-DIHYDROXY-4-METHOXYCHALCONE] is 102

GET /value?item= `CC[C@H](C=C[C@@H](C)[C@H]1CC[C@H]2[C@@H]3CCC4=CC(=O)CC[C@]4(C)[C@H]3CC[C@]12C)C(C)C` &field=Inhibition (%) returns 1

# Inhibition (%) (compound: CC(=O)Oc1cc(C(C)C)c(OCCN(C)C)cc1C.Cl [MOXISYLYTE HYDROCHORIDE] ) is 2
